- ASSAY_OVERVIEW: Stability evaluation of solution formulation (Experimental Example 2)
- Format: physicochemical
- RUN_CONDITIONS: solution formulation, pH4.0, 1 week
MEASUREMENT_NAME: Production rate of Alvocidib (%)
The reply should contain only the number, in %.

Before answering, review these 2 worked examples.
{"COMPOUND": "CCN(C[C@@H]1CCCCN1)C(=O)Oc1cc(O)c2c(=O)cc(-c3ccccc3Cl)oc2c1[C@H]1CCN(C)C[C@H]1O [Example 1, ditrifluoroacetate]", "REPORTED_VALUE": 0.1}
{"COMPOUND": "CCCN(C[C@H]1CCCCN1)C(=O)Oc1cc(O)c2c(=O)cc(-c3ccccc3Cl)oc2c1[C@H]1CCN(C)C[C@H]1O [Example 6]", "REPORTED_VALUE": 0.7}

We next turn to a different compound, shown below.
// lookup Production rate of Alvocidib for CCN(C[C@H]1CCCCN1)C(=O)Oc1cc(O)c2c(=O)cc(-c3ccccc3Cl)oc2c1[C@H]1CCN(C)C[C@H]1O [Example 2]
0.1
